Test system: RAW264.7
Assay: Antiinflammatory activity in mouse RAW264.7 cells assessed as inhibition of LPS-induced NO production preincubated for 1 hrs followed by LPS stimulation and measured after 24 hrs by Griess reagent based analysis
Format: functional, cell-based
# label = y if IC50 < 10 µM else n

The following compounds have reported results that may help.
INSERT INTO results (compound, class_name) VALUES
  ('O=C(CCc1ccc(O)c(O)c1)C[C@@H](O)CCc1ccc(O)c(O)c1 [HIRSUTANONOL]', 'n'),
  ('Oc1ccc(CCCC[C@@H](O)CCc2ccc(O)cc2)cc1', 'n'),
  ('O=C(CCCCc1ccc(O)c(O)c1)CCc1ccc(O)c(O)c1', 'y');

is_below(IC50, 10 µM) for O=C(/C=C/CCc1ccc(O)c(O)c1)CCc1ccc(O)c(O)c1 [DEHYDROHIRSUTANONOL] ?
y

The reported measurements were obtained from ChEMBL document CHEMBL5233262.
